Assay: compound fluorescence in toxin protease inhibitor counterscreen, primary screen, artefact control for toxin protease inhibitor project, biochemical, multiplex microsphere, HTS (AID 624483)
Settings: compound autofluorescence counterscreen, microsphere flow cytometry
The whole screen tested about 360,000 compounds, of which about 11,000 (3.1%) were called active. Inconclusive results (about 2%) are left out. Rule as the data show it: active = fluorescence intensity above about 16000; inconclusive = no clear call, values can overlap the other calls; inactive = below that. What follows is part of a selection rich in actives, with near analogues and random picks from the rest.
Outcomes: active, inactive

- compound: "Cn1c(=O)c(=O)n(C)c2cc(S(=O)(=O)NCCN3CCN(c4ccccc4F)CC3)ccc21"
  discreteLabel: "inactive"
- compound: "CC1CCC(NS(=O)(=O)c2ccc3c(c2)n(C)c(=O)c(=O)n3C)CC1 (stereo not given)"
  discreteLabel: "active"
- compound: "Cc1cc(C(=O)N2CCCC2(C)C(=O)O)c(C)o1 (stereo not given)"
  discreteLabel: "inactive"
- compound: "COc1ccc(NC(=O)COC(=O)c2n[nH]c3ccccc23)c(OC)c1"
  discreteLabel: "inactive"
- compound: "Cn1sc(=O)c2cc(S(=O)(=O)NC3CC3)ccc21"
  discreteLabel: "inactive"
- compound: "COC(=O)c1[nH]c2ccccc2c1NS(=O)(=O)c1ccc(OC)cc1OC"
  discreteLabel: "active"
- compound: "CC(C)(C)NC(=O)CN(Cc1cccs1)C(=O)CNS(=O)(=O)c1ccccc1"
  discreteLabel: "active"
- compound: "O=C(CCC1CCCN(Cc2ccc(O)c(Cl)c2)C1)NCc1ccccc1F (stereo not given)"
  discreteLabel: "inactive"
- compound: "O=C(CN(CC1CCCO1)C(=O)CNS(=O)(=O)c1ccccc1)NCc1ccccc1 (stereo not given)"
  discreteLabel: "inactive"
- compound: "CC1(C(=O)NCc2ccc(F)c(F)c2)Cc2c(-c3ccc4c(c3)OCO4)ccnc2O1 (stereo not given)"
  discreteLabel: "inactive"

Origin of the recorded values: PubChem BioAssay AID624483
